Can you tell me E^0 Aqueous for the items I'm about to list?
# test: Electrochemical studies (cyclic voltammetry) of iron:chelator complexes
# Format: physicochemical
# condition_info: Table 2
Give bare numbers, in mV vs. N.H.E..

For every record below, what is its E^0 Aqueous?
1. Cc1occc(=O)c1O
2. O=C(O)CN(CCN(CC(=O)O)CC(=O)O)CC(=O)O
3. O=c1cccccc1O
4. Cc1c(O)c(=O)ccn1C

Result string:
[41, 131, 39, "−420"]

---

# test: WST-8 toxicity in Caco-2 cells
# condition_info: human, wild type Caco-2 cells
property: EC90 (µM)
Give bare numbers, in µM.

Query string: Need EC90 of Cc1ncc(CO)c(C=NNC(=O)c2ccncc2)c1O [PIH, pyridoxal isonicotinoyl hydrazone] , thanks.
Result string: 31

---

# test: Iron (II) binding affinity, ferrozine competition assay
# condition_info: pH 7.0
Can you tell me KA for iron (II) for the items I'm about to list?

Example entries begin here.
>  <structure_as_smiles>
O=C(O)CN(CCN(CC(=O)O)CC(=O)O)CC(=O)O

>  <reported>
1.2 × 10^15

$$$$
>  <structure_as_smiles>
Cc1occc(=O)c1O

>  <reported>
7.8 × 10^13

$$$$

For every record below, what is its KA for iron (II)?
1. Cc1c(O)c(=O)ccn1C
2. O=c1cccccc1O
3. CC(C)c1cccc(=O)c(O)c1

Result string:
1: 2.1 × 10^15; 2: 2.3 × 10^15; 3: 5.1×10^15

---

# System: Caco-2
# test: WST-8 toxicity in Caco-2 cells
# condition_info: read-out: Toxicity (EC90); Wild Type Caco-2, WST-8 assay after ≥24 hours of incubation
property: EC90

Query string: Query for Caco-2: what EC90 does the record show for "CC(C)c1cccc(=O)cc1" ?
Result string: > 100 µM

---

# test: WST-8 toxicity in J774 cells
# Format: cell-based, mouse
# condition_info: mouse, wild type J774 cells; Wild Type J774, WST-8 assay after ≥24 hours of incubation
property: EC90

Query string: Need EC90 of "CC(C)c1cccc(=O)c(O)c1" , thanks.
Result string: > 100 µM

---

# test: Iron (III) binding affinity, EDTA or citrate competition assay
# condition_info: EDTA competition (citrate for maltol), pH 7.0
Can you tell me KA for iron (III) for the items I'm about to list?

For every record below, what is its KA for iron (III)?
1. O=c1cccccc1O
2. Cc1c(O)c(=O)ccn1C
3. CC(C)c1cccc(=O)c(O)c1
4. Cc1occc(=O)c1O

Result string:
1. 1.1 × 10^24
2. 1.2 × 10^24
3. 5.8×10^25
4. 3.9 × 10^17

---

# test: Electrochemical studies (cyclic voltammetry) of iron:chelator complexes
# Format: physicochemical
# condition_info: Table 2; 0.1 M Tris, pH 7.2
Hi, to clarify the labels: 1.0 covers E^0 1:1 MeOH:H2O from 40 mV vs. N.H.E. upward, 0.0 covers anything below 40 mV vs. N.H.E..

Previously resolved entries follow.
>  <structure_as_smiles>
O=c1cccccc1O

>  <label_class>
0.0

$$$$
>  <structure_as_smiles>
Cc1c(O)c(=O)ccn1C

>  <label_class>
0.0

$$$$

Query string: # bool: E^0 1:1 MeOH:H2O of "CC(C)c1cccc(=O)c(O)c1" >= 40 mV vs. N.H.E.
Result string: 0.0

Query string: Try this compound next: "Cc1occc(=O)c1O"
Result string: 0.0

Query string: Try this compound next: "O=C(O)CN(CCN(CC(=O)O)CC(=O)O)CC(=O)O"
Result string: 1.0

Values compiled from patent US12084411B2.
